# recombinant barcode read abundance (log10) annotations
- Experiment Description: recombinant barcode read abundance after kanamycin selection (control-corrected) (log10(CPM+1)); higher = more efficient recombination; sequences stand for … in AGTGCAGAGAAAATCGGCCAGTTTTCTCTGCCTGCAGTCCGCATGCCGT…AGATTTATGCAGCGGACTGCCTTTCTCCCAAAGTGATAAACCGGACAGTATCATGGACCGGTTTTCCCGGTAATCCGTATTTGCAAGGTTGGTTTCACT; site = the 11-nt target

Before answering, review these 9 worked examples.
query_sequence="TCTATGACTTGGGTTCTAACCTGTTGCCT (site TCTATGTCTAG)" value=0.187
query_sequence="CGGGGAGCTTGGGTTCTAACCTGTTGCCG (site CGGGAAGCTAG)" value=0.427
query_sequence="GCAGGTACTTGGGTTCTAACCTGTTGCCT (site CCAGGTACTAG)" value=0.401
query_sequence="GTCGACCCTTGGGTTCTAACCTGTTGCCT (site GTCGACCCTAG)" value=1.98
query_sequence="TCATATCCTTGGGTTCTAACCTGTTGCCT (site CTCCGAACTCT)" value=0.00468
query_sequence="CGCCCACCTTGGGTTCTAACCTGTTGCCT (site CTCCAACCTAG)" value=0
query_sequence="TGCTGTGCTTGGGTTCTAACCTGTTGCCT (site TGCTGTTCTAG)" value=0.279
query_sequence="ACAATAGCTTGGGTTCTAACCTGTTGCTG (site ACATTAGCTCA)" value=0.0649
query_sequence="ATATGAGCTTGGGTTCTAACCTGTTGCCA (site TTATGAGCTCG)" value=0.0938

Let us move to another entry and its recombinant barcode read abundance (log10).
Query: Indicate the recorded recombinant barcode read abundance (log10) value for this sequence: TGGCAGCCTTGGGTTCTAACCTGTTGCCT (site TGGCAGCCTAG)
Response: 0.216

---

# recombinant UMI read abundance (log10) annotations
- Experiment Description: recombinant UMI read abundance after kanamycin selection (control-corrected) (log10(CPM+1)); higher = more efficient recombination; extreme values may be limits of the assay; sequences stand for … in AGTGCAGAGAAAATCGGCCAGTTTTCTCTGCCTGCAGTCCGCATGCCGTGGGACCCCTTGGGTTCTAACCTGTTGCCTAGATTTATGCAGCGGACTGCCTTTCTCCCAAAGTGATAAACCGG…AGGTTGGTTTCACT; site = the 11-nt donor
Number only, please.

Before answering, review these 3 worked examples.
query_sequence="TAGCCTTCATGGACCGGTTTTCCCGGTAATCCGTATTTGGT (site TAGCCTTCTTC)" reported_metric="recombinant UMI read abundance (log10)" value=0.0121
query_sequence="AAGGGATCATGGACCGGTTTTCCCGGTAATCCGTATTTGTT (site AAGGGATCTAA)" reported_metric="recombinant UMI read abundance (log10)" value=2.95
query_sequence="TGTTCCCCATGGACCGGTTTTCCCGGTAATCCGTATTTGTA (site TGTTGCCCTTA)" reported_metric="recombinant UMI read abundance (log10)" value=0.0058

Query: Indicate the recorded recombinant UMI read abundance (log10) value for this sequence: AGTAAGGCATGGACCGGTTTTCCCGGTAATCCGTATTTGCT (site AGAAAGGCTAG)
Response: 1.39

Query: Indicate the recorded recombinant UMI read abundance (log10) value for this sequence: ATCTATACATGGACCGGTTTTCCCGGTAATCCGTATTTGCC (site ATCTATACTGG)
Response: 2.12

Query: Indicate the recorded recombinant UMI read abundance (log10) value for this sequence: CCGGATCCATGGACCGGTTTTCCCGGTAATCCGTATTTGTT (site CGGAATCCTAA)
Response: 0.00344

Query: Indicate the recorded recombinant UMI read abundance (log10) value for this sequence: CCGCTTCCATGGACCGGTTTTCCCGGTAATCCGTATTTGTC (site CCGCTTCCTGA)
Response: 0

Query: Indicate the recorded recombinant UMI read abundance (log10) value for this sequence: GTCAGGACATGGACCGGTTTTCCCGGTAATCCGTATTTGTC (site GTCAGGACTGA)
Response: 2.38

Query: Indicate the recorded recombinant UMI read abundance (log10) value for this sequence: TAAAGTTCATGGACCGGTTTTCCCGGTAATCCGTATTTGTA (site TAAAGTACTTA)
Response: 0.0179

---

- Experiment Description: recombinant UMI read abundance after kanamycin selection (control-corrected) (log10(CPM+1)); higher = more efficient recombination; extreme values may be limits of the assay; sequences stand for … in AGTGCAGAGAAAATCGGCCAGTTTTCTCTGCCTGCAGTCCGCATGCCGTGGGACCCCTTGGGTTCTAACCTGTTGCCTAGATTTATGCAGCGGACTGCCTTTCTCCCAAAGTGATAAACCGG…AGGTTGGTTTCACT; site = the 11-nt donor
Reported Metric: recombinant UMI read abundance (log10)
Number only, please.

query_sequence="CGACCAACATGGACCGGTTTTCCCGGTAATCCGTATTTGCT (site CGATCATCTAG)" reported_metric="recombinant UMI read abundance (log10)" value=0

Query: Indicate the recorded recombinant UMI read abundance (log10) value for this sequence: CTGCTACCATGGACCGGTTTTCCCGGTAATCCGTATTTGCT (site CTGTTACCTAG)
Response: 0

Query: Indicate the recorded recombinant UMI read abundance (log10) value for this sequence: TGTTCCCCATGGACCGGTTTTCCCGGTAATCCGTATTTGCA (site TGTTCCCCTTT)
Response: 0.0133

Query: Indicate the recorded recombinant UMI read abundance (log10) value for this sequence: CCCATATCATGGACCGGTTTTCCCGGTAATCCGTATTTGGC (site CCCATATCTGT)
Response: 0.0107

Query: Indicate the recorded recombinant UMI read abundance (log10) value for this sequence: GAAGACTCATGGACCGGTTTTCCCGGTAATCCGTATTTGTT (site GAAGAATCTAA)
Response: 0.423

Query: Indicate the recorded recombinant UMI read abundance (log10) value for this sequence: CTAGTACCATGGACCGGTTTTCCCGGTAATCCGTATTTGAC (site CTAGTAGCTGT)
Response: 0.415

---

- Experiment Description: recombinant UMI read abundance after kanamycin selection (control-corrected) (log10(CPM+1)); higher = more efficient recombination; extreme values may be limits of the assay; sequences stand for … in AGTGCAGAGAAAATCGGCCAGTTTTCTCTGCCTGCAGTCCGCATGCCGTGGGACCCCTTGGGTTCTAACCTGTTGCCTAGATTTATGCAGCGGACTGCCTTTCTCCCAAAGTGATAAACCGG…AGGTTGGTTTCACT; site = the 11-nt donor
Reported Metric: recombinant UMI read abundance (log10)
Number only, please.

Before answering, review these 3 worked examples.
query_sequence="AAACTAACATGGACCGGTTTTCCCGGTAATCCGTATTTGCA (site AAACTAACTTG)" reported_metric="recombinant UMI read abundance (log10)" value=2.27
query_sequence="AGGTAGCCATGGACCGGTTTTCCCGGTAATCCGTATTTGTA (site AGGTAGCCTTA)" reported_metric="recombinant UMI read abundance (log10)" value=0.215
query_sequence="GAGAAACCATGGACCGGTTTTCCCGGTAATCCGTATTTGGT (site GATAAACCTAC)" reported_metric="recombinant UMI read abundance (log10)" value=0

Query: Indicate the recorded recombinant UMI read abundance (log10) value for this sequence: ATGCAAGCATGGACCGGTTTTCCCGGTAATCCGTATTTGAG (site ATTCAAGCTCT)
Response: 0.614

Query: Indicate the recorded recombinant UMI read abundance (log10) value for this sequence: GTTGGAACATGGACCGGTTTTCCCGGTAATCCGTATTTGGC (site GTTCGAACTGC)
Response: 0

Query: Indicate the recorded recombinant UMI read abundance (log10) value for this sequence: ACGCTATCATGGACCGGTTTTCCCGGTAATCCGTATTTGCA (site ACAGTATCTTG)
Response: 1.92

Query: Indicate the recorded recombinant UMI read abundance (log10) value for this sequence: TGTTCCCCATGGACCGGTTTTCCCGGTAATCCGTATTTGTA (site TGTTCCGCTTA)
Response: 0.0259

Query: Indicate the recorded recombinant UMI read abundance (log10) value for this sequence: GAATCATCATGGACCGGTTTTCCCGGTAATCCGTATTTGCT (site CGATCATCTAG)
Response: 1.88

---

- Experiment Description: recombinant UMI read abundance after kanamycin selection (control-corrected) (log10(CPM+1)); higher = more efficient recombination; extreme values may be limits of the assay; sequences stand for … in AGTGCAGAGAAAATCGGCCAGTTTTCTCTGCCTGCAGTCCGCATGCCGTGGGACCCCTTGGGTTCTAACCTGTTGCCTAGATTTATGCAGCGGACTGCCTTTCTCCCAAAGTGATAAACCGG…AGGTTGGTTTCACT; site = the 11-nt donor
The threshold is inclusive: recombinant UMI read abundance (log10) of exactly 0.02 counts as class 1; values below receive class 0.

Recorded results for 5 sequences are shown here.
query_sequence="CGGGGACCATGGACCGGTTTTCCCGGTAATCCGTATTTGAT (site CGGGAACCTAT)" category="class 0"
query_sequence="GAACGGCCATGGACCGGTTTTCCCGGTAATCCGTATTTGCA (site GAAGGGCCTTG)" category="class 0"
query_sequence="AAAAGGCCATGGACCGGTTTTCCCGGTAATCCGTATTTGAC (site AAAAGGCCTGT)" category="class 1"
query_sequence="GTTAGGACATGGACCGGTTTTCCCGGTAATCCGTATTTGAG (site GTTAGGACTCT)" category="class 1"
query_sequence="AGCCCAGCATGGACCGGTTTTCCCGGTAATCCGTATTTGGG (site AGCTCAGCTCC)" category="class 0"

Moving on to another sequence below.
Query: Kindly determine if recombinant UMI read abundance (log10) recorded for TTGCAAGCATGGACCGGTTTTCCCGGTAATCCGTATTTGCT (site TTGCAAGCTAG) is above or exactly 0.02.
Response: class 0
